tested on: Androgen Receptor; assay: Overall classification (antiandrogen / SARM) in the models studied
Measured attribute: classification as antiandrogen or SARM (in words)

- Molecule: "CC1(C)C(=O)N(c2ccc(C#N)c(Cl)c2)C(=O)N1CCCOc1ccc(-c2ccncc2)cc1Cl [EM-9150]"
  Meas value: "antiandrogens"
- Molecule: "CC1(C)C(=O)N(c2ccc(C#N)c(Cl)c2)C(=O)N1CCCOc1ccc(-c2cc[n+]([O-])cc2)cc1Cl [EM-9156]"
  Meas value: "antiandrogens"

---

biological target: Human Androgen Receptor (Homo sapiens (Human)); test: Androgen receptor assay: [3H]R1881 displacement, cytosol of HEK-293 cells transfected with hAR (hydroxylapatite assay); type: binding; details: relative binding affinity, R1881 = 100; […]
Sequence (P10275 whole entry): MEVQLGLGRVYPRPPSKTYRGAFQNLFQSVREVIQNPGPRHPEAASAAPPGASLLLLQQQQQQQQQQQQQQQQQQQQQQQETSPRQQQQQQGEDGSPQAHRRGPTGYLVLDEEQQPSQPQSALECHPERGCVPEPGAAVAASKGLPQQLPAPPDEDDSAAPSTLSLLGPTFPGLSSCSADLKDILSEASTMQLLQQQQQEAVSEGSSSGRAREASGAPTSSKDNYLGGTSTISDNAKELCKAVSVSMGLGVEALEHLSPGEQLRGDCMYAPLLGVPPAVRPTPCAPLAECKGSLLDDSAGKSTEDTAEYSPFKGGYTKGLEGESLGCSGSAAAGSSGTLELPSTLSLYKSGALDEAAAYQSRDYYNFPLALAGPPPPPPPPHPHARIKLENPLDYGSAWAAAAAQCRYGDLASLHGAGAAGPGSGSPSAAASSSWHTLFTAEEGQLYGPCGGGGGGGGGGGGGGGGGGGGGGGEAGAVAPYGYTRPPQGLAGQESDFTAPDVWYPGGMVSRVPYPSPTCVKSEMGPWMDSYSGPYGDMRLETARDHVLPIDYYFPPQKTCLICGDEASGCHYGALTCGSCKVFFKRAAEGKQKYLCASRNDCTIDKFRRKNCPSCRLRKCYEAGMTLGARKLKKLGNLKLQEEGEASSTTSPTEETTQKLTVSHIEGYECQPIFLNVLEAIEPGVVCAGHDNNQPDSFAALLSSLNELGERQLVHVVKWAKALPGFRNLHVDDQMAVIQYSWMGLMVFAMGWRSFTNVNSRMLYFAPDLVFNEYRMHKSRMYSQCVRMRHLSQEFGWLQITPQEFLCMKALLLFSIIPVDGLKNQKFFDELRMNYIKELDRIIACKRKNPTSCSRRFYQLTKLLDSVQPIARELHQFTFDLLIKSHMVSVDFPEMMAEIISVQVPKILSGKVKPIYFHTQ
We begin with a simple list: items and their reported Human Androgen Receptor Binding RBA (%) R1881 = 100.
Measured attribute: Human Androgen Receptor Binding RBA (%) R1881 = 100

- Smiles: "Cc1c(N2C(=O)N(CCOc3ccc(-c4cc[n+]([O-])cc4)cc3)C(C)(C)C2=O)ccc(C#N)c1Cl"
  Unit of measure: "%"
  Meas value: 4.0
- Smiles: "Cc1c(N2C(=O)C(C)(C)N(CCCOc3ccc4ncccc4c3)C2=S)ccc(C#N)c1Cl"
  Unit of measure: "%"
  Meas value: 125.4
- Smiles: "Cc1c(N2C(=O)C(C)(C)N(CCCOc3ccc(-c4ccncc4)nc3)C2=S)ccc(C#N)c1Cl"
  Unit of measure: "%"
  Meas value: 113
- Smiles: "Cc1c(N2C(=O)N(CCCOc3ccc(-c4cc[n+]([O-])cc4)cc3)C(C)(C)C2=O)ccc(C#N)c1Cl"
  Unit of measure: "%"
  Meas value: 26.2

---

Here, each record is paired with measured IC50 data.
test system: Shionogi mouse mammary carcinoma cells; experiment: In vitro androgenic/antiandrogenic activity: proliferation of Shionogi cells with or without DHT; format: cell-based; conditions: Mus musculus; DHT (0.3 nM)-stimulated cell number; read-out: Shionogi Antiandrogenic Activity IC50

- Compound: "CC1(C)C(=O)N(c2ccc(C#N)c(C(F)(F)F)c2)C(=O)N1c1ccc(-c2ccncc2)cc1 [EM-9340]"
  Unit of measure: "µM"
  IC50: 0.126
- Compound: "Cc1c(N2C(=O)C(C)(C)N(CCCOc3ccc4cccnc4c3)C2=S)ccc(C#N)c1Cl [EM-8730]"
  Unit of measure: "µM"
  IC50: 0.105
- Compound: "Cc1c(N2C(=O)C(C)(C)N(CCCOc3ccc(-c4ccncc4)cc3C(F)(F)F)C2=S)ccc(C#N)c1C(F)(F)F [EM-8772]"
  Unit of measure: "µM"
  IC50: 0.137
- Compound: "Cc1c(N2C(=O)C(C)(C)N(CCCOc3ccc(-c4ccncc4)c(F)c3)C2=S)ccc(C#N)c1C(F)(F)F [EM-8797]"
  Unit of measure: "µM"
  IC50: 0.108
- Compound: "CC1(C)C(=O)N(c2ccc(C#N)c(C(F)(F)F)c2)C(=S)N1CCCOc1ccc(-c2ccncc2)c(Cl)c1 [EM-8888]"
  Unit of measure: "µM"
  IC50: 0.111

---

test system: castrated (CX) immature male rats; experiment: Systemic androgenic (agonistic) activity in orchidectomized (CX) immature male rats; type: in vivo, rat; details: 0.1 mg/rat/po, 7 days, seminal vesicles weight

- Smiles: "Cc1c(N2C(=O)N(CCOc3ccc(-c4cc[n+]([O-])cc4)cc3)C(C)(C)C2=O)ccc(C#N)c1Cl"
  CX Agonistic activity % Stimulation SV, %: 12
- Smiles: "Cc1c(N2C(=O)C(C)(C)N(CCCOc3ccc(-c4ccc(N(C)C)nc4)cc3)C2=S)ccc(C#N)c1Cl"
  CX Agonistic activity % Stimulation SV, %: 61
- Smiles: "Cc1c(N2C(=O)C(C)(C)N(CCCOc3ccc(-c4ccncc4F)cc3)C2=S)ccc(C#N)c1C(F)(F)F"
  CX Agonistic activity % Stimulation SV, %: 24
- Smiles: "Cc1c(N2C(=O)C(C)(C)N(CCCOc3ccc(-c4ccncc4)cc3F)C2=S)ccc(C#N)c1Cl"
  CX Agonistic activity % Stimulation SV, %: 56
- Smiles: "Cc1c(N2C(=O)C(C)(C)N(CCCOc3ccc4cnccc4c3)C2=S)ccc(C#N)c1Cl"
  CX Agonistic activity % Stimulation SV, %: 18
